- Target: T1, recombinant human KLK5 C-6His (Novoprotein, Catalog No. C415) (human, UniProt Q9Y337 23-293)
- T1 construct: Bought protein; also called KLK5 protein (Novoprotein); not shown: C-terminal 6xHis tag ('C-6His')
- Assay name: ELISA on captured KLK5 C-6His; binder incubated in human serum, day 14
pEC50: −log10 of the molar value.
Measured pEC50 accompanies every entry in the list below.
Experimental readout: pEC50

1. Spink9-186.Fc (SEQ ID NO: 58) (Fc fusion, Mutant SPINK9 domain fused directly to a C-terminal IgG Fc) IECAKQTKQMVDCSHYKKLPPAQLIYCTKEYDPICGSDGKTYKNDCFFCSKVKKTDGTLKFVHFGKCEPKSCDKTHTCPPCPAPEAAGGPSVFLFPPKPKDTLMISRTPEVTCVVVDVSHEDPEVKFNWYVDGVEVHNAKTKPREEQYNSTYRVVSVLTVLHQDWLNGKEYKCKVSNKALPAPIEKTISKAKGQPREPQVYTLPPSREEMTKNQVSLTCLVKGFYPSDIAVEWESNGQPENNYKTTPPVLDSDGSFFLYSKLTVDKSRWQQGNVFSCSVLHEALHSHYTQKSLSLSPGK; 9.54
2. Spink9-30.Fc (SEQ ID NO: 55) (Fc fusion, Mutant SPINK9 domain fused directly to a C-terminal IgG Fc) IECAKQTKQMVDCSHYKKLPPEQVSWCTREYDPICGSDGKTYKNDCFFCSKVKKTDGTLKFVHFGKCEPKSCDKTHTCPPCPAPEAAGGPSVFLFPPKPKDTLMISRTPEVTCVVVDVSHEDPEVKFNWYVDGVEVHNAKTKPREEQYNSTYRVVSVLTVLHQDWLNGKEYKCKVSNKALPAPIEKTISKAKGQPREPQVYTLPPSREEMTKNQVSLTCLVKGFYPSDIAVEWESNGQPENNYKTTPPVLDSDGSFFLYSKLTVDKSRWQQGNVFSCSVLHEALHSHYTQKSLSLSPGK; 9.89
3. Spink9-236.Fc (SEQ ID NO: 60) (Fc fusion, Mutant SPINK9 domain fused directly to a C-terminal IgG Fc) IECAKQTKQMVDCSHYKKLPPEQQLMCTREYDPICGSDGKTYKNDCFFCSKVKKTDGTLKFVHFGKCEPKSCDKTHTCPPCPAPEAAGGPSVFLFPPKPKDTLMISRTPEVTCVVVDVSHEDPEVKFNWYVDGVEVHNAKTKPREEQYNSTYRVVSVLTVLHQDWLNGKEYKCKVSNKALPAPIEKTISKAKGQPREPQVYTLPPSREEMTKNQVSLTCLVKGFYPSDIAVEWESNGQPENNYKTTPPVLDSDGSFFLYSKLTVDKSRWQQGNVFSCSVLHEALHSHYTQKSLSLSPGK; 9.96
